Test: Dissociation constant, pKa of the compound
Format: physicochemical
READOUT NAME: pKa
Form: value (number only, do not type unit).

# get_value(readout='pKa', item= Oc1ccc(Cl)cc1-c1c[nH]nn1 ) 8.3

---

Target: Indoleamine 2,3-dioxygenase 1 (Homo sapiens, UniProt P14902)
Sequence (P14902 whole entry): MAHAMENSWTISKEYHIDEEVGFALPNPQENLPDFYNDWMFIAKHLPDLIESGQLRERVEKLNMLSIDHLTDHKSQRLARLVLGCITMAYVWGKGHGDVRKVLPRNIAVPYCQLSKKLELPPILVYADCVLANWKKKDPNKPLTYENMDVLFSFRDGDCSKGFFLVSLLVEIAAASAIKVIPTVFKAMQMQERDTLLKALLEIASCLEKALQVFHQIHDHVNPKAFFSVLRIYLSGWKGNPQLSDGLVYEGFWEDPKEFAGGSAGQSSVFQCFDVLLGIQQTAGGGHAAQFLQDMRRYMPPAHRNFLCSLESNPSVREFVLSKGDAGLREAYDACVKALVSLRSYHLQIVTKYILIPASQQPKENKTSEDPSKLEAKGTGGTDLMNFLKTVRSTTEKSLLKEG
Test: Inhibition of IDO1 (unknown origin) by enzymatic assay
READOUT NAME: pIC50
Please treat pIC50 as minus the base-10 logarithm of the molar concentration.

Look up pIC50 for this molecule: Clc1ccc(Nc2cn[nH]n2)cc1 4.95

---

Biological target: Indoleamine 2,3-dioxygenase 1 (Homo sapiens)
Experiment: Inhibition of purified human recombinant IDO1 expressed in Escherichia coli assessed as reduction in kynurenine production incubated up to 90 mins using L-Trp substrate by Ehrlich's reagent based spectrophotometry
READOUT NAME: IC50 (nM)
Your answer should be a plain number; it is taken to be in nM.

// lookup IC50 for CC1(C)CCC2=C(O1)c1ccccc1C(=O)C2=O 440
